Molecular target: Fibroblast growth factor 2 (Homo sapiens)
Sequence (P09038 143-288 limits assumed): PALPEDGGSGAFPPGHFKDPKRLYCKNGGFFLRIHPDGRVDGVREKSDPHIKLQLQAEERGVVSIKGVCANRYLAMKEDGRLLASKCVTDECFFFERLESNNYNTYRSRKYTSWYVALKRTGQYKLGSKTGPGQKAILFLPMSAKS
Experiment: Binding affinity to basic fibroblast growth factor (unknown origin) using sugar chip immobilized compound by surface plasmon resonance method
Details: read-out: Kd
readoutName: log10 Kd (log10 of the value in nM)
Short version: log10 scale, Kd, nM.

| compound | testTarget | log10 Kd |
| --- | --- | --- |
| CC(=O)N[C@H]1[C@@H](OC[C@@H](O)[C@@H](O)[C@H](O)[C@@H](O)CNc2cccc(NC(=O)CCCCC3CCSS3)c2)O[C@H](CO)[C@H](OS(=O)(=O)O)[C@@H]1O[C@@H]1O[C@H](C(=O)O)[C@@H](O)[C@H](O)[C@H]1OS(=O)(=O)O (mixture of isomers) | Fibroblast growth factor 2 (Homo sapiens) | 1.61 |
| CC(=O)N[C@H]1[C@@H](OC[C@@H](O)[C@@H](O)[C@H](O)[C@@H](O)CNc2cccc(NC(=O)CCCCC3CCSS3)c2)O[C@H](COS(=O)(=O)O)[C@H](O)[C@@H]1O[C@@H]1O[C@H](C(=O)O)[C@@H](O)[C@H](OS(=O)(=O)O)[C@H]1OS(=O)(=O)O (mixture of isomers) | Fibroblast growth factor 2 (Homo sapiens) | 2.00 |
| CC(=O)N[C@H]1[C@@H](OC[C@@H](O)[C@@H](O)[C@H](O)[C@@H](O)CNc2cccc(NC(=O)CCCCC3CCSS3)c2)O[C@H](COS(=O)(=O)O)[C@H](OS(=O)(=O)O)[C@@H]1O[C@@H]1O[C@H](C(=O)O)[C@@H](O)[C@H](OS(=O)(=O)O)[C@H]1O (mixture of isomers) | Fibroblast growth factor 2 (Homo sapiens) | 1.78 |
| CC(=O)N[C@H]1[C@@H](OC[C@@H](O)[C@@H](O)[C@H](O)[C@@H](O)CNc2cccc(NC(=O)CCCCC3CCSS3)c2)O[C@H](CO)[C@H](O)[C@@H]1O[C@@H]1O[C@H](C(=O)O)[C@@H](O)[C@H](OS(=O)(=O)O)[C@H]1OS(=O)(=O)O (mixture of isomers) | Fibroblast growth factor 2 (Homo sapiens) | 1.98 |
| CC(=O)N[C@H]1[C@@H](OC[C@@H](O)[C@@H](O)[C@H](O)[C@@H](O)CNc2cccc(NC(=O)CCCCC3CCSS3)c2)O[C@H](CO)[C@H](O)[C@@H]1O[C@@H]1O[C@H](C(=O)O)[C@@H](O)[C@H](OS(=O)(=O)O)[C@H]1O (mixture of isomers) | Fibroblast growth factor 2 (Homo sapiens) | 1.40 |

State its log10 Kd: CC(=O)N[C@H]1[C@@H](OC[C@@H](O)[C@@H](O)[C@H](O)[C@@H](O)CNc2cccc(NC(=O)CCCCC3CCSS3)c2)O[C@H](COS(=O)(=O)O)[C@H](O)[C@@H]1O[C@@H]1O[C@H](C(=O)O)[C@@H](O)[C@H](O)[C@H]1O (mixture of isomers)
1.56

State its log10 Kd: CC(=O)N[C@H]1[C@@H](OC[C@@H](O)[C@@H](O)[C@H](O)[C@@H](O)CNc2cccc(NC(=O)CCCCC3CCSS3)c2)O[C@H](COS(=O)(=O)O)[C@H](O)[C@@H]1O[C@@H]1O[C@H](C(=O)O)[C@@H](O)[C@H](O)[C@H]1OS(=O)(=O)O (mixture of isomers)
1.36

State its log10 Kd: CC(=O)N[C@H]1[C@@H](OC[C@@H](O)[C@@H](O)[C@H](O)[C@@H](O)CNc2cccc(NC(=O)CCCCC3CCSS3)c2)O[C@H](COS(=O)(=O)O)[C@H](OS(=O)(=O)O)[C@@H]1O[C@@H]1O[C@H](C(=O)O)[C@@H](O)[C@H](O)[C@H]1O (some centres undefined)
1.20

State its log10 Kd: CC(=O)N[C@H]1[C@@H](OC[C@@H](O)[C@@H](O)[C@H](O)[C@@H](O)CNc2cccc(NC(=O)CCCCC3CCSS3)c2)O[C@H](CO)[C@H](O)[C@@H]1O[C@@H]1O[C@H](C(=O)O)[C@@H](O)[C@H](O)[C@H]1OS(=O)(=O)O (mixture of isomers)
1.79

State its log10 Kd: CC(=O)N[C@H]1[C@@H](OC[C@@H](O)[C@@H](O)[C@H](O)[C@@H](O)CNc2cccc(NC(=O)CCCCC3CCSS3)c2)O[C@H](COS(=O)(=O)O)[C@H](O)[C@@H]1O[C@@H]1O[C@H](C(=O)O)[C@@H](O)[C@H](OS(=O)(=O)O)[C@H]1O (mixture of isomers)
2.17
